src = patent US9334246B2

# Test target: hERG potassium ion channel (Homo sapiens)
# Experimental protocol: hERG patch clamp assay (% inhibition at 10 μM)
# Experimental conditions: % inhibition at 10 μM, patch clamp
Give measured hERG for each item. Keep answers brief.
Give bare numbers, in %.

INSERT INTO results (compound, recorded_endpoint, unit_of_measurement, obs_value) VALUES
  ('Clc1ccc(-c2nc(N3CCOCC3)nc(C(Cl)(Cl)Cl)n2)cc1 [Cmpd 31]', 'hERG', '%', 12),
  ('CC(C)(C)c1ccc(-c2nc(N3CCNCC3)nc(C(Cl)(Cl)Cl)n2)cc1 [Cmpd 161]', 'hERG', '%', 15),
  ('NC1(CNc2nc(-c3cccc(C(F)(F)F)c3)nc(C(Cl)(Cl)Cl)n2)CCOCC1 [Cmpd 315]', 'hERG', '%', 36),
  ('CN(C)C1CCN(c2nc(-c3ccc(Cl)c(Cl)c3)nc(C(Cl)(Cl)Cl)n2)C1 (centres unmarked) [Cmpd 20]', 'hERG', '%', 50);

// batch mode: one hERG value per listed entry
1. CC(C)(N)CNc1nc(-c2ccccc2)nc(C(Cl)(Cl)Cl)n1 [Compound 312]
2. CC(C)(C)c1ccc(-c2nc(NCCCN3CCCC3)nc(C(Cl)(Cl)Cl)n2)cc1 [Cmpd 34]
3. CC(C)(N)CNc1nc(-c2ccc(S(C)(=O)=O)cc2)nc(C(Cl)(Cl)Cl)n1 [Compound 97]
4. CC1(C)CC(Nc2nc(-c3ccc(C(C)(C)C)cc3)nc(C(Cl)(Cl)Cl)n2)CC(C)(C)N1 [Cmpd 321]

**Result**
[65, 80.9, 35, 11]

====

# Test system: P. falciparum W2
# Experimental protocol: Malaria SYBR Green Fluorescence Assay, W2 strain
# Format: cell-based, Plasmodium falciparum
# Experimental conditions: SYBR Green Assay
I'd appreciate it if you could supply W2 values for the items below.
Number first, unit second.

A selection of reference data follows.
INSERT INTO results (compound, test_target, obs_value) VALUES
  ('CS(=O)(=O)c1ccc(-c2nc(NCCc3ccccn3)nc(C(Cl)(Cl)Cl)n2)cc1', 'P. falciparum W2', '478 ng/mL'),
  ('COc1ccccc1-c1nc(NCCc2ccncc2)nc(C(Cl)(Cl)Cl)n1', 'P. falciparum W2', '246 ng/mL'),
  ('CC(C)CN1CCC(Nc2nc(-c3ccc(C(C)(C)C)cc3)nc(C(Cl)(Cl)Cl)n2)CC1', 'P. falciparum W2', '23 ng/mL');

Report W2 for every entry below.
1. ClC(Cl)(Cl)c1ccc(-c2nc(NCCN3CCCC3)nc(C(Cl)(Cl)Cl)n2)cc1
2. COc1ccccc1Cc1nc(N2CCCN(C)CC2)nc(C(Cl)(Cl)Cl)n1
3. Cc1ccc(-c2nc(NCc3ccncc3)nc(C(Cl)(Cl)Cl)n2)cc1

**Result**
["6 ng/mL", "311 ng/mL", "453 ng/mL"]

Hi team, please reply with W2 for each item in this list.
1. CC(C)(C)OC(=O)N1CC2CC1CN2c1nc(-c2ccc(Cl)c(Cl)c2)nc(C(Cl)(Cl)Cl)n1 (centres unmarked)
2. ClC(Cl)(Cl)c1nc(NCCCN2CCCC2)nc(-c2ccc(-c3ccccc3)cc2)n1

**Result**
1: 851.8 ng/mL; 2: 105 ng/mL

====

# Test target: hERG potassium ion channel (Homo sapiens)
# Experimental protocol: hERG patch clamp assay (% inhibition at 10 μM)
# Experimental conditions: % inhibition at 10 μM, patch clamp
Record form. Attribute: hERG. Fill in for each entry.
Numbers only, in %.

Examples with their reported hERG follow.
INSERT INTO assay_data (compound, obs_value) VALUES
  ('CCN1CCCC(Nc2nc(-c3ccc(C(C)(C)C)cc3)nc(C(Cl)(Cl)Cl)n2)C1 (stereo not shown)', 51),
  ('CCN(CC)CCNc1nc(Cc2ccc(OC)cc2)nc(C(Cl)(Cl)Cl)n1', 100),
  ('CC(C)(C)c1ccc(-c2nc(NCC3(N)CCOCC3)nc(C(Cl)(Cl)Cl)n2)cc1', 5);

# ---- query compound ----
**Query** Answer with the recorded hERG of OCCN1CCN(c2nc(-c3ccc(C(Cl)(Cl)Cl)cc3)nc(C(Cl)(Cl)Cl)n2)CC1 only.
**Result** 18

====

For each entry below, report its hERG value.
# Test target: hERG potassium ion channel (Homo sapiens, UniProt Q12809)
# Sequence (Q12809 whole entry): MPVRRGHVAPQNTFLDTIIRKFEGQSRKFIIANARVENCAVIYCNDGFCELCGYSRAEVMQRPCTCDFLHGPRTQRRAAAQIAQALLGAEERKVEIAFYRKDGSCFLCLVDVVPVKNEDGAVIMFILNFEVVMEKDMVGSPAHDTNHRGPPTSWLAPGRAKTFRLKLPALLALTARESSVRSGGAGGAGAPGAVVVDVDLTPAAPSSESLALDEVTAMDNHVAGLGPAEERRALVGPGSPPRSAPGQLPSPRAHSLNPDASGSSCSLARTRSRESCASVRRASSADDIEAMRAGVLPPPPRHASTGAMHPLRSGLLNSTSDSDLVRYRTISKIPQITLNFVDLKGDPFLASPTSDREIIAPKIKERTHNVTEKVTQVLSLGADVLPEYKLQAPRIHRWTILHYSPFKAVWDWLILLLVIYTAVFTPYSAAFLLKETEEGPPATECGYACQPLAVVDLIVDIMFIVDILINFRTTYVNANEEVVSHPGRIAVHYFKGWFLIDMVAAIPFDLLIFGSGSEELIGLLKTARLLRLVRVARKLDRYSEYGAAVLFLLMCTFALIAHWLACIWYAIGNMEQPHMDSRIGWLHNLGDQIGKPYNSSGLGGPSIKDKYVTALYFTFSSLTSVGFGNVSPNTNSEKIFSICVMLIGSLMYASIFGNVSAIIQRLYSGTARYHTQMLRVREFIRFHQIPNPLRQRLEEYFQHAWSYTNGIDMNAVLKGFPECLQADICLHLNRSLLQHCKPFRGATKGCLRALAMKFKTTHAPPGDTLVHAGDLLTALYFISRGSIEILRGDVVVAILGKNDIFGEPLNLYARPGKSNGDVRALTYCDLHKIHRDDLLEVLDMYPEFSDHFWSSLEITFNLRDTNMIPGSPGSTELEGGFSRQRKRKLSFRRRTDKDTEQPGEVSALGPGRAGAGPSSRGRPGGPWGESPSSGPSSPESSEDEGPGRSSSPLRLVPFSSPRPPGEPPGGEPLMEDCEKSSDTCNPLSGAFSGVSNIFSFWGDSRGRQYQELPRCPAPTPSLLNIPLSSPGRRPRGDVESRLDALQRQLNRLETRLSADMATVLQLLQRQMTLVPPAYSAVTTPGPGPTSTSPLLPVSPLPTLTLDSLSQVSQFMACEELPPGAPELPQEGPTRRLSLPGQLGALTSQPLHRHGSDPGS
# Experimental protocol: hERG patch clamp assay (% inhibition at 10 μM)
# Experimental conditions: hERG activity as % inhibition
Answers are plain numbers, in %.

Example entries begin here.
INSERT INTO results (compound, obs_value) VALUES
  ('CS(=O)(=O)c1ccc(-c2nc(N3CC4CC3CN4)nc(C(Cl)(Cl)Cl)n2)cc1 (stereo not shown)', 70),
  ('FC(F)(F)c1cccc(-c2nc(N3CC4CC3CN4)nc(C(Cl)(Cl)Cl)n2)c1 (stereo not shown)', 29),
  ('CC(C)(C)OC(=O)N1CC2CC1CN2c1nc(-c2ccc(S(C)(=O)=O)cc2)nc(C(Cl)(Cl)Cl)n1 (stereo not shown)', 19);

From here, focus on the item given below.
**Query** State hERG on hERG potassium ion channel (Homo sapiens, UniProt Q12809). Entry: CC(CNc1nc(-c2ccc(Cl)c(Cl)c2)nc(C(Cl)(Cl)Cl)n1)N(C)C (stereo not shown)
**Result** 95

====

# Test system: P. falciparum W2
# Experimental protocol: Malaria SYBR Green Fluorescence Assay, W2 strain
# Assay type: cell-based, Plasmodium falciparum
# Experimental conditions: SYBR Green Assay
Recorded endpoint: W2 (ng/mL)
One number for each entry, in ng/mL.

Some solved cases for reference:
INSERT INTO results (molecule, test_target, obs_value) VALUES
  ('CN1CCC(Nc2nc(-c3ccccc3)nc(C(Cl)(Cl)Cl)n2)CC1 [Cmpd 237]', 'P. falciparum W2', 32),
  ('Cc1ccc(-c2nc(N3CCCNCC3)nc(C(Cl)(Cl)Cl)n2)cc1 [Compound 102]', 'P. falciparum W2', 44),
  ('CCN(CC)CCNc1nc(Cc2cccc(OC)c2)nc(C(Cl)(Cl)Cl)n1 [Cmpd 243]', 'P. falciparum W2', 123);

Could you report W2 for every entry in the following list?
1. CC(C)(C)c1ccc(-c2nc(NCc3ccccn3)nc(C(Cl)(Cl)Cl)n2)cc1 [Cmpd 170]
2. CCN1CCC(CNc2nc(-c3ccc(OC)c4ccccc34)nc(C(Cl)(Cl)Cl)n2)CC1 [Cmpd 279]
3. ClC(Cl)(Cl)c1nc(NCCN2CCCC2)nc(-c2ccc(-c3ccccc3)cc2)n1 [Cmpd 196]
4. COc1ccccc1Nc1nc(N2CCN(C)CC2)nc(C(Cl)(Cl)Cl)n1 [Cmpd 65]
5. COc1ccc(-c2nc(NCc3ccccn3)nc(C(Cl)(Cl)Cl)n2)cc1 [Cmpd 168]
6. NC1(CNc2nc(-c3ccc(C(Cl)(Cl)Cl)cc3)nc(C(Cl)(Cl)Cl)n2)CC1 [Compound 679]
7. ClC(Cl)(Cl)c1nc(-c2ccc(-c3ccccc3)cc2)nc(N2CCCNCC2)n1 [Cmpd 198]

**Result**
313
20
25
32
338
201
40

Quick batch: W2 for everything below.
1. Clc1cc(Cl)cc(-c2nc(N3CCCNCC3)nc(C(Cl)(Cl)Cl)n2)c1 [Cmpd 204]
2. CCN1CCCC(Nc2nc(Nc3ccc(OC)nc3)nc(C(Cl)(Cl)Cl)n2)C1 (centres unmarked) [Cmpd 344]
3. CN1CCN(c2nc(-c3ccc(C(Cl)(Cl)Cl)cc3)nc(C(Cl)(Cl)Cl)n2)CC1 [Compound 99]
4. CSc1ccc(-c2nc(NC3CC(C)(C)NC(C)(C)C3)nc(C(Cl)(Cl)Cl)n2)cc1 [Cmpd 323]
5. ClC(Cl)(Cl)c1nc(NCCc2ccncc2)nc(-c2ccc3ccccc3c2)n1 [Cmpd 230]

**Result**
[78, 34, 12, 17, 59]

Go through the items and report each one's W2.
1. Cc1ccc(-c2nc(NCC3(N)CC3)nc(C(Cl)(Cl)Cl)n2)cc1 [Compound 681]
2. COc1ccc(-c2nc(NCC3(N)CCCC3)nc(C(Cl)(Cl)Cl)n2)cc1OC [Compound 674]
3. CS(=O)(=O)c1ccc(-c2nc(NCCc3cccnc3)nc(C(Cl)(Cl)Cl)n2)cc1 [Cmpd 179]

**Result**
1: 328; 2: 6; 3: 201

====

Assign hERG (% inhibition) to each entry below.
# Test target: hERG potassium ion channel (Homo sapiens, UniProt Q12809)
# Experimental protocol: hERG patch clamp assay (% inhibition at 10 μM)
# Experimental conditions: 10 μM
One number for each entry, in %.

Completed entries (count: 8):
INSERT INTO measurements (compound, test_target, recorded_endpoint, obs_value) VALUES
  ('CCN1CCCC(Nc2nc(-c3ccc(F)cc3)nc(C(Cl)(Cl)Cl)n2)C1 (stereo not drawn)', 'hERG potassium ion channel (Homo sapiens, UniProt Q12809)', 'hERG (% inhibition)', 108),
  ('Clc1ccc(-c2nc(NCCCCCN3CCCC3)nc(C(Cl)(Cl)Cl)n2)cc1', 'hERG potassium ion channel (Homo sapiens, UniProt Q12809)', 'hERG (% inhibition)', 63),
  ('CN1CCCC1CCNc1nc(-c2ccc(F)cc2)nc(C(Cl)(Cl)Cl)n1 (stereo not drawn)', 'hERG potassium ion channel (Homo sapiens, UniProt Q12809)', 'hERG (% inhibition)', 105),
  ('CCC(N)(CC)CNc1nc(-c2ccc3ccccc3c2)nc(C(Cl)(Cl)Cl)n1', 'hERG potassium ion channel (Homo sapiens, UniProt Q12809)', 'hERG (% inhibition)', 25),
  ('CCC(N)(CC)CNc1nc(-c2ccc(-c3ccccc3)cc2)nc(C(Cl)(Cl)Cl)n1', 'hERG potassium ion channel (Homo sapiens, UniProt Q12809)', 'hERG (% inhibition)', 25),
  ('CCC(N)(CC)CNc1nc(-c2ccc(Cl)cc2)nc(C(Cl)(Cl)Cl)n1', 'hERG potassium ion channel (Homo sapiens, UniProt Q12809)', 'hERG (% inhibition)', 44),
  ('CCC(N)(CC)CNc1nc(-c2ccc(S(C)(=O)=O)cc2)nc(C(Cl)(Cl)Cl)n1', 'hERG potassium ion channel (Homo sapiens, UniProt Q12809)', 'hERG (% inhibition)', 69),
  ('CCN(CC)CCNc1nc(Nc2ccc(OC(F)(F)F)cc2)nc(C(Cl)(Cl)Cl)n1', 'hERG potassium ion channel (Homo sapiens, UniProt Q12809)', 'hERG (% inhibition)', 109);

Now consider a different compound.
**Query** Entry Fc1ccc(-c2nc(NCCCN3CCCC3)nc(C(Cl)(Cl)Cl)n2)cc1 needs its hERG (% inhibition) filled in; supply it.
**Result** 106
